ASSAY_SYSTEM: Ferredoxin:NADP^+ oxidoreductase (PfFNR) (Plasmodium falciparum)
Construct: gene FNR; recombinant PfFNR
Sequence (C6KT68 56-371): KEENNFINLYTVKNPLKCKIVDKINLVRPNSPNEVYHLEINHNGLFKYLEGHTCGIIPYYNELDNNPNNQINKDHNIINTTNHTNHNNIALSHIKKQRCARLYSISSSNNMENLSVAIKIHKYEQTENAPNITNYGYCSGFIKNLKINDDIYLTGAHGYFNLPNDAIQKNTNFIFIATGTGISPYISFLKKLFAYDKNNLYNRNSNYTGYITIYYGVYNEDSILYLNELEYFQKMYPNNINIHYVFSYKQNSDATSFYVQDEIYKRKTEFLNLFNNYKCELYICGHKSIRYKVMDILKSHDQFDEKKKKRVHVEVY
ASSAY_TEXT: steady-state kinetics; competitive inhibition versus AcPyP+ in transhydrogenase reaction; stopped-flow FAD reduction
Assay type: biochemical
OBSERVABLE: Ki (µM)
Field: numeric (µM). Do not append units.

IN: Look up Ki: NC(=O)C1=CN([C@@H]2O[C@H](COP(=O)(O)OP(=O)(O)OC[C@H]3O[C@@H](n4cnc5c(N)ncnc54)[C@H](OP(=O)(O)O)[C@@H]3O)[C@@H](O)[C@H]2O)C=CC1
OUT: 140
